reported.endpoint: melting point

Form field melting point, entry N#Cc1c(-c2ccc(Cl)cc2)[nH]c(Br)c1Cl : 262 to 263 °C

* * *

# key: entry, value: melting point

> print(dat)
                                   compound  reported.endpoint  observed.measurement
1  CCc1c(C(=O)C(N)=O)c2c(OCC(=O)N(C)OC)cccc2n1Cc1ccccc1      melting point         168 to 170 °C
2  C=CCN(CC=C)c1nc(NC(=O)c2ccccc2)n2oc(=O)nc2n1      melting point         174 to 175 °C
3  NS(=O)(=O)c1ccc(N2CCN(Cc3ccc4c(c3)NC(=O)CO4)CC2)cc1      melting point         150 to 153 °C
4  COc1cc(OC)cc(N2CCN(C(=O)Nc3nc(C)c(C)nc3OC)CC2)c1      melting point         136 to 137 °C
5  CC(=O)Nc1cnc(-c2cc(Cl)cc(Cl)c2Cl)c(NC(=O)C(C)C)n1      melting point         230 to 232 °C

Form field melting point, entry COc1cc(C=O)cc(Cl)c1Cl : 97 to 98.5 °C

Form field melting point, entry CCCCC(Cc1cccnc1)(C(=O)O)S(=O)(=O)c1ccc(OC)cc1 (stereo not drawn) : 65 °C

Form field melting point, entry CC(C)CC1(C(CCN2C(=O)c3ccc4c(ccc5ccccc54)c3C2=O)C(=O)NO)CCN(CCc2ccccc2)C1=O (stereo not drawn) : 203 to 205 °C

Form field melting point, entry O=C(O)c1cccc(N2C(=O)c3cccc([N+](=O)[O-])c3C2=O)c1 : 354 to 355 °C

Form field melting point, entry CCNC(=O)N1C(=O)C2(CCCCC2)NC12CCCCC2 : 185 to 188 °C

Form field melting point, entry CCc1nn(CCNC(=O)OC(C)(C)C)c(CN)c1Oc1cc(Cl)cc(Cl)c1 : 112 to 114 °C

Form field melting point, entry Cc1ccc2c(c1)oc1c(C(=O)NC34CC5CC(CC(C5)C3)C4)nn(-c3ccc(Cl)cc3Cl)c12 : 210 to 212 °C

Form field melting point, entry O=C(CNC(=O)c1cc([N+](=O)[O-])c([N+](=O)[O-])cc1Cl)OCc1ccccc1 : 122 to 124 °C

* * *

reported.endpoint: melting point (°C)

a = CCC[C@H]1CC[C@H](CCc2ccc(-c3ccc(OCC)c(F)c3F)cc2)CC1
b = O=C1CNC(=O)[C@@H](CO)N1
Hi, I'm comparing a with b and wondering which one has the bigger number for melting point. Any idea? When you have decided, please share the label of that item.
b
(b: 218 °C, a: 73 °C)

* * *

reported.endpoint: melting point

Some solved cases for reference:
> print(dat)
                                   molecule  observed.measurement
1  C[C@H]1CCCC(C)(C)[C@@H]1C(=O)c1c(F)c(F)c(F)c(F)c1F         35.2 to 38 °C
2  FC(F)(F)c1ccc(-c2cc(C(F)(F)F)n3cnc(-c4cccnc4)c3n2)cc1                231 °C
3      CN(CC(=O)c1ccc(Br)cc1)C(=O)OC(C)(C)C           87 to 90 °C
4  COc1ccc(C(F)(F)F)cc1-c1ccc(S(=O)(=O)N2c3ccccc3CC2C(=O)NCCOc2ccc(CC(=O)O)cc2)cc1 (centres undefined)           85 to 88 °C
5    COc1ccc(C(=O)O)cc1C12CC3CC(CC(C3)C1)C2         238 to 239 °C

Form field melting point, entry COc1ccc2c(c1)COc1ccc(CC(=O)O)cc1C2=O : 163 to 165 °C

Form field melting point, entry O=[N+]([O-])c1cc(Cl)c(OCc2ccccc2-c2ccccc2)c(Cl)c1 : 83 to 84.5 °C

Form field melting point, entry Cc1cc(-n2cccn2)c2cccc(OCc3c(Cl)ccc(S(=O)(=O)N4CCC[C@H]4CO)c3Cl)c2n1 : 65 °C

Form field melting point, entry CCOc1ccc(CNC(=O)C(=O)NCCc2ccccn2)c(OC)c1 : 117 to 118 °C

* * *

reported.endpoint: melting point

> print(dat)
                                    compound  observed.measurement
 1                CC=COc1cc(N)c(Cl)cc1C(=O)O         136 to 137 °C
 2           CSc1nccc(-c2nc(=O)c3ccccc3s2)n1                224 °C
 3           CNC(=O)NN(CC(=O)OC)c1cccc(Cl)c1         121 to 122 °C
 4  O=C(Nc1cccc(Nc2ccc3c(c2)NC(=O)C3=Cc2ccc[nH]2)c1)Nc1cc(F)c(F)cc1F         224 to 226 °C
 5  COC(C)c1c(C(C)C)nc(C(C)C)c(CO)c1-c1ccc(F)cc1 (stereo not given)         151 to 153 °C
 6  COc1cc(C2C3=C(CNC3=O)Nc3cc4c(cc32)OCO4)cc(OC)c1OC (stereo not given)                244 °C
 7  C[C@H]1CC[C@H]2C(C)(C)[C@@H](O)CC[C@]23Oc2c(c(O)cc4c2CN(S(=O)(=O)c2ccccc2)C4)C[C@]13C         150 to 153 °C
 8  CC12CCC3c4ccc(C(=O)O)cc4CCC3C1CCC2C(=O)C#Cc1ccccc1 (stereo not given)         174 to 178 °C
 9  CCCCC1(N(C)C)CCC(c2[nH]c3ccccc3c2Cc2ccccc2)CC1 (stereo not given)           72 to 78 °C
10  CCCNc1cc(C(=O)OCC)cc(S(N)(=O)=O)c1Oc1ccccc1         150 to 151 °C

Form field melting point, entry COC1=CCC2=C(CC[C@H]3[C@@H]4CCC(=O)[C@@]4(C)CC[C@]23C)C1 : 155 to 158 °C

Form field melting point, entry O=[N+]([O-])c1ccc(-n2nc(CO)c3c2CCCC3)cc1 : 219 °C

Form field melting point, entry [O-][N+]1=C(c2ccccc2Cl)c2cc(Cl)ccc2-c2ncncc2C1 : 216 to 217 °C

Form field melting point, entry CC1(CF)C=C(C#N)c2cc([N+](=O)[O-])ccc2O1 (stereo not given) : 169 to 171 °C

Form field melting point, entry CC(C)c1cccc(C(C)C)c1NC(=O)N(Cc1ccccc1)CC1(c2ncccn2)CCCCC1 : 112 to 114 °C

Form field melting point, entry CC(C)(C)c1cc(SCCOC(=O)c2cc(C(C)(C)C)c(OC(=O)c3cc(C(C)(C)C)c(O)c(C(C)(C)C)c3)c(C(C)(C)C)c2)cc(C(C)(C)C)c1O : 168 to 170 °C

Form field melting point, entry COC(=O)C(Cl)=Cc1cc(-n2c(OC)nc(C(F)(F)F)cc2=O)ccc1Cl : 151 to 152 °C

Form field melting point, entry CCOC(=O)c1cc2c(C)cccc2n1CCCC(=O)O : 132 to 133 °C

Form field melting point, entry Cc1nc(C)c(Cl)c(NCc2nccc(SCCCCBr)c2C)n1 : 127 to 128 °C

Form field melting point, entry OCCN(Cc1ccccc1)c1nc2ccccc2s1 : 95 to 96 °C

Form field melting point, entry O=C(O)CN1C(=O)CN(Cc2ccccc2)C1=O : 125 to 127 °C

Form field melting point, entry CCOC(=O)[C@@H](CCC(=O)N1c2ccccc2C[C@H]1C(=O)OCC)NC(=O)[C@@H](N)CCCCNSc1ncccc1[N+](=O)[O-] : 95 to 102 °C

Form field melting point, entry CCN1CCc2cc(Nc3ncc(Cl)c(N[C@@H]4CCCC[C@H]4NS(C)(=O)=O)n3)c(OC)cc2CC1=O : 139 to 150 °C

* * *

reported.endpoint: melting point

Some solved cases for reference:
> print(dat)
                                   molecule  reported.endpoint  observed.measurement
1  CCc1ccc2c(c1)C=Cc1sc(C)nc1C2c1cn(Cc2cccc(C(=O)O)c2)c(=O)[nH]c1=O (centres undefined)      melting point         159 to 161 °C
2  CCc1ccc2c(c1)c(-c1ccccc1Cl)c(C(=O)O)c(=O)n2C      melting point         200 to 201 °C
3                 CCn1nc(C#Cc2ccccc2)ccc1=O      melting point           74 to 75 °C
4  COc1ccc(-n2nc(Sc3ccc(Cl)c(Cl)c3)c(C)c(C#N)c2=O)cc1      melting point         168 to 171 °C

Form field melting point, entry CCCc1cc(-c2ccc(Cl)cc2)nc2c(C(=O)Nc3cccc(S(C)(=O)=O)c3)cnn12 : 214 to 217 °C
